# system_under_test: UniProt:P03951
# Sequence (P03951 388-625): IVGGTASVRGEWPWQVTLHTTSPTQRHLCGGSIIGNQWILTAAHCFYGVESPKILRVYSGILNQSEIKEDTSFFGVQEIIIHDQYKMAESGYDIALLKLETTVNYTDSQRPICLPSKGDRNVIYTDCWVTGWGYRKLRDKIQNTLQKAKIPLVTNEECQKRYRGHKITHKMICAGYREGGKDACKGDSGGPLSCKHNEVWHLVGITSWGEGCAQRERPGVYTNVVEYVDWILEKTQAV
# Sequence (P03951 19-387 partner): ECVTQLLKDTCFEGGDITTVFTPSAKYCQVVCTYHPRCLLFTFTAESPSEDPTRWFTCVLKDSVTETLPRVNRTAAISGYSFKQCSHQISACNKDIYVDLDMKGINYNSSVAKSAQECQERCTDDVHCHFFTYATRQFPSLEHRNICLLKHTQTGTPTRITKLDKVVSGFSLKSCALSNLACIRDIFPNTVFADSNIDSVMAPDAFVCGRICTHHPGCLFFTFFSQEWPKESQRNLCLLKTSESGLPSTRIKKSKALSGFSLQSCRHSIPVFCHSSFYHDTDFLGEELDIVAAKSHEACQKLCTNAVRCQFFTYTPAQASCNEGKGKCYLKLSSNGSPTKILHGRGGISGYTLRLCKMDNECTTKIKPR
# protocol_summary: Factor XIa Assay
# Format: biochemical
# test_conditions: read-out: FXIa Ki
measured_property: Ki (nM)

compound: O=C1Nc2ccc(Cl)c(F)c2[C@@]2(CCCN(C(=O)[C@H](Cc3ccccc3)NC(=O)c3ccc(-c4nc(=O)o[nH]4)cc3)C2)O1 [Example 232]
measured_property: Ki
measurement_units: nM
data_value: 258

(1) O=C1Nc2ccc(Cl)cc2C2(CCN(C(=O)[C@H](Cc3ccccc3)NC(=O)c3cccc(N4CCNC4=O)c3)C2)O1 (stereo partly drawn) [Example 169]
(2) Nc1cc(C(=O)N[C@@H](Cc2ccccc2)C(=O)N2CCC3(C2)OC(=O)Nc2ccc(Cl)cc23)cc2[nH]cnc12 (stereo partly drawn) [Example 260]
Problem: Consider entries 1 and 2 . Which has the numerically lower Ki? Indicate which entry you chose by stating its label.
Result: 2
(2: 77.9 nM, 1: 774 nM)
